Biological target: MMP-13 (Homo sapiens, UniProt P45452)
Construct: made in house; host or cells: baculovirus / insect cells
Test: In vitro MMP inhibition, Ki determination (fluorogenic substrate II)
Format: biochemical
Conditions: human recombinant enzyme; 4 μM substrate II; room temperature, 1 hr; read-out: MMP-13 Ki
Counter-ions that a name gives are not always drawn.
Lab note: compare Ki with 0.6 nM, writing Y if less and N if equal or more.

Field: below-cutoff. Rule: recorded Ki strictly less than 0.6 nM. Subject: CCCCCc1ccc(C2CCN(S(=O)(=O)C3(C(=O)NO)CCN(CCOC)CC3)CC2)cc1 [Example 15, Hydrochloride]
Y

# iterate: O=C(NO)C1(S(=O)(=O)N2CCN(c3ccc(OC(F)(F)C(F)F)cc3)CC2)CCOCC1 [Example 4]
Y

# iterate: CCCCc1ccc(C2CCN(S(=O)(=O)C3(C(=O)NO)CCOCC3)CC2)s1 [Example 19]
N

# iterate: O=C(NO)C1(S(=O)(=O)N2CCN(c3ccc(OCCCC(F)(F)F)cc3)CC2)CCOCC1 [Example 7, Hydrochloride]
Y

# iterate: CCCCCc1ccc(N2CCN(S(=O)(=O)C3(C(=O)NO)CCOCC3)CC2)c(F)c1 [Example 23, Hydrochloride]
N

# iterate: CCCCCc1ccc(N2CCN(S(=O)(=O)C3(C(=O)NO)CCN(CCOC)CC3)CC2)cc1 [Example 6, Dihydrochloride]
Y
